Source listed as paper PMC10568461.

Measurement Notes: Brain concentrations of harmine, DMT and metabolites by UHPLC-MS after s.c. harmine and/or DMT
Cond: rat, frontal cortex, subcutaneous, Brain concentration, Experiment 2, frontal cortex, after harmine + DMT (3 mg/kg each), 65 min
Parameter Measured: concentration at 65 min (µM)
Number only, in µM; omit the unit.

Requested read-out: concentration at 65 min. Entry: O=C(O)Cc1c[nH]c2ccccc12 [3-IAA, indole-3-acetic acid] 3.7

----------
Measurement Notes: Brain concentrations of harmine, DMT and metabolites by UHPLC-MS after s.c. harmine and/or DMT
Cond: Exp 1, group Har + DMT, average of regions
Catalogue of Percentage of total molar concentration of DMT and metabolites values
Number only, in %; omit the unit.

Worked cases, Percentage of total molar concentration of DMT and metabolites given:
compound="CN(C)CCc1c[nH]c2ccccc12 [DMT, N,N-dimethyltryptamine]" readout_unit=% observed_value=33.9
compound="C[N+](C)([O-])CCc1c[nH]c2ccccc12 [DMT-N-Oxide, DMT-N-oxide]" readout_unit=% observed_value=1.4
compound="O=C(O)Cc1c[nH]c2ccccc12 [3-IAA, indole-3-acetic acid]" readout_unit=% observed_value=64.7

Requested read-out: Percentage of total molar concentration of DMT and metabolites. Entry: CNCCc1c[nH]c2ccccc12 [NMT, N-methyltryptamine] 0.1

----------
Measurement Notes: Brain concentrations of harmine, DMT and metabolites by UHPLC-MS after s.c. harmine and/or DMT
Cond: rat, brain, subcutaneous, 1 mg/kg, Brain harmine concentration, at 100 min after treatment with 1 mg/kg
Parameter Measured: concentration at 100 min

Requested read-out: concentration at 100 min. Entry: COc1ccc2c(c1)[nH]c1c(C)nccc12 [harmine] ~1000 nM

----------
Measurement Notes: Brain concentrations of harmine, DMT and metabolites by UHPLC-MS after s.c. harmine and/or DMT
Cond: rat, frontal cortex, subcutaneous, 1 mg/kg, Brain concentration, Experiment 1, frontal cortex, after DMT alone (1 mg/kg)
Parameter Measured: concentration at 95 min

Requested read-out: concentration at 95 min. Entry: O=C(O)Cc1c[nH]c2ccccc12 [3-IAA, indole-3-acetic acid] 2900 nM

----------
Measurement Notes: Brain concentrations of harmine, DMT and metabolites by UHPLC-MS after s.c. harmine and/or DMT
Cond: rat, cerebellum, subcutaneous, Brain concentration, Experiment 1, cerebellum, after harmine + DMT (1 mg/kg each)
Catalogue of concentration at 95 min values
Number only, in nM; omit the unit.

compound="O=C(O)Cc1c[nH]c2ccccc12 [3-IAA, indole-3-acetic acid]" parameter_measured="concentration at 95 min" observed_value=1100

Then there is this compound:
Requested read-out: concentration at 95 min. Entry: CN(C)CCc1c[nH]c2ccccc12 [DMT, N,N-dimethyltryptamine] 600

----------
Measurement Notes: Brain concentrations of harmine, DMT and metabolites by UHPLC-MS after s.c. harmine and/or DMT
Cond: Exp 1, group DMT, front cort
Parameter Measured: Percentage of total molar concentration of DMT and metabolites (%)
Number only, in %; omit the unit.

Worked cases, Percentage of total molar concentration of DMT and metabolites given:
molecule=O=C(O)Cc1c[nH]c2ccccc12 observed_value=97.3
molecule=CNCCc1c[nH]c2ccccc12 observed_value=0.0
molecule="C[N+](C)([O-])CCc1c[nH]c2ccccc12 [DMT-N-Oxide, DMT-N-oxide]" observed_value=0.1

Requested read-out: Percentage of total molar concentration of DMT and metabolites. Entry: CN(C)CCc1c[nH]c2ccccc12 2.6
